tested on: 293 cells; test: Transient transfection LacZ reporter assay of ribozyme self-cleavage; format: cell-based; conditions: rz at position E of pMD vector
reportedMetric: cleavage activity, fold difference between functional and inactive rz

Measured cleavage activity, fold difference between functional and inactive rz, N79: N73 ribozyme transferred to position E of the vector, SEQ ID NO: 5 (nucleic acid) CUGAGAUGCAGGUACAUCCAGCUGAUGAGUCCCAAAUAGGACGAAACGCGCUUCGGUGCGUCCUGGAUUCCACUGCUAUCCAC : 225 fold
